Below, each entry is listed with its recorded log10(MIC).
Test system: Staphylococcus aureus
procedure_details: Compound was evaluated for in vitro antibacterial activity against gram positive organism Staphylococcus aureus strain ATCC 29213
Assay type: functional
assay_endpoint: log10(MIC) (log10 of the value in µg/mL)

molecule_smiles	log10(MIC)
CN[C@@H]1CN(c2cc3c(cc2F)c(=O)c(C(=O)O)cn3-c2ccccc2F)C[C@H]1NC.O=C(O)C(F)(F)F	0.60
CN[C@@H]1CN(c2cc3c(cc2F)c(=O)c(C(=O)O)cn3-c2ccc(F)cc2)C[C@H]1NC.Cl	-0.30
Cl.N[C@@H]1CN(c2cc3c(cc2F)c(=O)c(C(=O)O)cn3-c2ccc(F)cc2)C[C@H]1N	0.00
CCn1cc(C(=O)O)c(=O)c2cc(F)c(N3CCNCC3)cc21	0.60
CCn1cc(C(=O)O)c(=O)c2cc(F)c(N3C[C@@H](N)[C@H](N)C3)c(F)c21.Cl	0.30
O=C(O)c1cn(C2CC2)c2cc(N3CCNCC3)c(F)cc2c1=O	0.30
CCn1cc(C(=O)O)c(=O)c2cc(F)c(N3C[C@@H](NC)[C@H](NC)C3)c(F)c21.Cl	0.60
CN[C@@H]1CN(c2c(F)c(N)c3c(=O)c(C(=O)O)cn(C4CC4)c3c2F)C[C@H]1NC.Cl	-0.60
N[C@@H]1CN(c2cc3c(cc2F)c(=O)c(C(=O)O)cn3C2CC2)C[C@H]1N.O=C(O)C(F)(F)F	0.30
CN[C@@H]1CN(c2cc3c(cc2F)c(=O)c(C(=O)O)cn3C2CC2)C[C@H]1NC.Cl	0.00

###

Tested on: Staphylococcus aureus
procedure_details: Compound was evaluated for in vitro antibacterial activity against gram positive organism Staphylococcus aureus strain ATCC 6538P
Format: functional
assay_endpoint: MIC (mg/L)

compound	assay_endpoint	measure_unit	value_measured
Cl.N[C@@H]1CN(c2cc3c(cc2F)c(=O)c(C(=O)O)cn3-c2ccc(F)cc2)C[C@H]1N	MIC	mg/L	1
CCn1cc(C(=O)O)c(=O)c2cc(F)c(N3C[C@@H](NC)[C@H](NC)C3)c(F)c21.Cl	MIC	mg/L	4
CN[C@@H]1CN(c2cc3c(cc2F)c(=O)c(C(=O)O)cn3-c2ccccc2F)C[C@H]1NC.O=C(O)C(F)(F)F	MIC	mg/L	0.5
O=C(O)c1cn(C2CC2)c2cc(N3CCNCC3)c(F)cc2c1=O [CIPROFLOXACIN]	MIC	mg/L	0.5

###

Tested on: Escherichia coli
procedure_details: Compound was evaluated for in vitro antibacterial activity against gram negative organism Escherichia coli strain ATCC 35218
Assay type: functional
Below, each entry is listed with its recorded MIC.

molecule_smiles	MIC, µg/mL
CCn1cc(C(=O)O)c(=O)c2cc(F)c(N3C[C@@H](NC)[C@H](NC)C3)c(F)c21.Cl	1
CN[C@@H]1CN(c2cc3c(cc2F)c(=O)c(C(=O)O)cn3-c2ccc(F)cc2)C[C@H]1NC.Cl	1
CCn1cc(C(=O)O)c(=O)c2cc(F)c(N3C[C@@H](N)[C@H](N)C3)c(F)c21.Cl	1
Cl.N[C@@H]1CN(c2cc3c(cc2F)c(=O)c(C(=O)O)cn3-c2ccc(F)cc2)C[C@H]1N	1
CCn1cc(C(=O)O)c(=O)c2cc(F)c(N3CCNCC3)cc21	0.125

###

Tested on: Enterococcus faecalis
procedure_details: Compound was evaluated for in vitro antibacterial activity against gram positive organism Streptococcus faecalis strain ATCC 29212
Format: functional
Below, each entry is listed with its recorded log10 MIC.
assay_endpoint: log10 MIC (log10 of the value in µg/mL)

molecule_smiles	study_system	value_measured
N[C@@H]1CN(c2cc3c(cc2F)c(=O)c(C(=O)O)cn3C2CC2)C[C@H]1N.O=C(O)C(F)(F)F	Enterococcus faecalis	0.30
CN[C@@H]1CN(c2cc3c(cc2F)c(=O)c(C(=O)O)cn3-c2ccccc2F)C[C@H]1NC.O=C(O)C(F)(F)F	Enterococcus faecalis	0.60
CCn1cc(C(=O)O)c(=O)c2cc(F)c(N3CCNCC3)cc21	Enterococcus faecalis	0.00
CN[C@@H]1CN(c2c(F)c(N)c3c(=O)c(C(=O)O)cn(C4CC4)c3c2F)C[C@H]1NC.Cl	Enterococcus faecalis	0.00
CCn1cc(C(=O)O)c(=O)c2cc(F)c(N3C[C@@H](NC)[C@H](NC)C3)c(F)c21.Cl	Enterococcus faecalis	0.60
O=C(O)c1cn(C2CC2)c2cc(N3CCNCC3)c(F)cc2c1=O	Enterococcus faecalis	-0.90
CN[C@@H]1CN(c2cc3c(cc2F)c(=O)c(C(=O)O)cn3C2CC2)C[C@H]1NC.Cl	Enterococcus faecalis	0.30
CN[C@@H]1CN(c2cc3c(cc2F)c(=O)c(C(=O)O)cn3-c2ccc(F)cc2)C[C@H]1NC.Cl	Enterococcus faecalis	-0.30
CCn1cc(C(=O)O)c(=O)c2cc(F)c(N3C[C@@H](N)[C@H](N)C3)c(F)c21.Cl	Enterococcus faecalis	0.60
Cl.N[C@@H]1CN(c2cc3c(cc2F)c(=O)c(C(=O)O)cn3-c2ccc(F)cc2)C[C@H]1N	Enterococcus faecalis	0.30

###

Test system: Escherichia coli
procedure_details: Compound was evaluated for in vitro antibacterial activity against gram negative organism Escherichia coli strain ATCC 25922
Format: functional
Decision: MIC beneath 0.1 µg/mL gives Criterion met; MIC meeting or exceeding 0.1 µg/mL gives Criterion not met.

molecule_smiles	label_value
CCn1cc(C(=O)O)c(=O)c2cc(F)c(N3CCNCC3)cc21	Criterion met
CCn1cc(C(=O)O)c(=O)c2cc(F)c(N3C[C@@H](N)[C@H](N)C3)c(F)c21.Cl	Criterion not met
CN[C@@H]1CN(c2cc3c(cc2F)c(=O)c(C(=O)O)cn3C2CC2)C[C@H]1NC.Cl	Criterion not met
Cl.N[C@@H]1CN(c2cc3c(cc2F)c(=O)c(C(=O)O)cn3-c2ccc(F)cc2)C[C@H]1N	Criterion not met
N[C@@H]1CN(c2cc3c(cc2F)c(=O)c(C(=O)O)cn3C2CC2)C[C@H]1N.O=C(O)C(F)(F)F	Criterion not met
CN[C@@H]1CN(c2cc3c(cc2F)c(=O)c(C(=O)O)cn3-c2ccccc2F)C[C@H]1NC.O=C(O)C(F)(F)F	Criterion not met
CN[C@@H]1CN(c2cc3c(cc2F)c(=O)c(C(=O)O)cn3-c2ccc(F)cc2)C[C@H]1NC.Cl	Criterion not met
CN[C@@H]1CN(c2c(F)c(N)c3c(=O)c(C(=O)O)cn(C4CC4)c3c2F)C[C@H]1NC.Cl	Criterion met
CCn1cc(C(=O)O)c(=O)c2cc(F)c(N3C[C@@H](NC)[C@H](NC)C3)c(F)c21.Cl	Criterion not met

###

Test system: Pseudomonas aeruginosa
procedure_details: Compound was evaluated for in vitro antibacterial activity against gram negative organism Pseudomonas aeruginosa strain DRCC 131
Assay type: functional

molecule_smiles	sign_qualifier	MIC (µg/mL)
CCn1cc(C(=O)O)c(=O)c2cc(F)c(N3C[C@@H](N)[C@H](N)C3)c(F)c21.Cl	>	8
O=C(O)c1cn(C2CC2)c2cc(N3CCNCC3)c(F)cc2c1=O	>	8
N[C@@H]1CN(c2cc3c(cc2F)c(=O)c(C(=O)O)cn3C2CC2)C[C@H]1N.O=C(O)C(F)(F)F	>	8
Cl.N[C@@H]1CN(c2cc3c(cc2F)c(=O)c(C(=O)O)cn3-c2ccc(F)cc2)C[C@H]1N	=	1
CN[C@@H]1CN(c2c(F)c(N)c3c(=O)c(C(=O)O)cn(C4CC4)c3c2F)C[C@H]1NC.Cl	=	1
CCn1cc(C(=O)O)c(=O)c2cc(F)c(N3C[C@@H](NC)[C@H](NC)C3)c(F)c21.Cl	>	8
CCn1cc(C(=O)O)c(=O)c2cc(F)c(N3CCNCC3)cc21	>	8
CN[C@@H]1CN(c2cc3c(cc2F)c(=O)c(C(=O)O)cn3-c2ccccc2F)C[C@H]1NC.O=C(O)C(F)(F)F	=	0.5
CN[C@@H]1CN(c2cc3c(cc2F)c(=O)c(C(=O)O)cn3C2CC2)C[C@H]1NC.Cl	=	2
CN[C@@H]1CN(c2cc3c(cc2F)c(=O)c(C(=O)O)cn3-c2ccc(F)cc2)C[C@H]1NC.Cl	=	0.25

###

Test system: Pseudomonas fluorescens
procedure_details: Compound was evaluated for in vitro antibacterial activity against gram negative organism Pseudomonas fluorescence strain DRCC 008
Type: functional
Below, each entry is listed with its recorded MIC.

compound	study_system	sign_qualifier	MIC, µg/mL
CCn1cc(C(=O)O)c(=O)c2cc(F)c(N3C[C@@H](NC)[C@H](NC)C3)c(F)c21.Cl	Pseudomonas fluorescens	=	4
O=C(O)c1cn(C2CC2)c2cc(N3CCNCC3)c(F)cc2c1=O [CIPROFLOXACIN]	Pseudomonas fluorescens	=	0.5
N[C@@H]1CN(c2cc3c(cc2F)c(=O)c(C(=O)O)cn3C2CC2)C[C@H]1N.O=C(O)C(F)(F)F	Pseudomonas fluorescens	=	1
CN[C@@H]1CN(c2cc3c(cc2F)c(=O)c(C(=O)O)cn3-c2ccc(F)cc2)C[C@H]1NC.Cl	Pseudomonas fluorescens	=	2
CN[C@@H]1CN(c2cc3c(cc2F)c(=O)c(C(=O)O)cn3C2CC2)C[C@H]1NC.Cl	Pseudomonas fluorescens	>	8
CCn1cc(C(=O)O)c(=O)c2cc(F)c(N3CCNCC3)cc21 [NORFLOXACIN]	Pseudomonas fluorescens	=	0.25
CN[C@@H]1CN(c2cc3c(cc2F)c(=O)c(C(=O)O)cn3-c2ccccc2F)C[C@H]1NC.O=C(O)C(F)(F)F	Pseudomonas fluorescens	>	8
CN[C@@H]1CN(c2c(F)c(N)c3c(=O)c(C(=O)O)cn(C4CC4)c3c2F)C[C@H]1NC.Cl	Pseudomonas fluorescens	>	8
CCn1cc(C(=O)O)c(=O)c2cc(F)c(N3C[C@@H](N)[C@H](N)C3)c(F)c21.Cl	Pseudomonas fluorescens	=	4
Cl.N[C@@H]1CN(c2cc3c(cc2F)c(=O)c(C(=O)O)cn3-c2ccc(F)cc2)C[C@H]1N	Pseudomonas fluorescens	=	2

Reference source for all entries: ChEMBL document CHEMBL1131559
